- ASSAY_TARGET: hTRPV3 (Homo sapiens (Human))
- Sequence (Q8NET8 whole entry): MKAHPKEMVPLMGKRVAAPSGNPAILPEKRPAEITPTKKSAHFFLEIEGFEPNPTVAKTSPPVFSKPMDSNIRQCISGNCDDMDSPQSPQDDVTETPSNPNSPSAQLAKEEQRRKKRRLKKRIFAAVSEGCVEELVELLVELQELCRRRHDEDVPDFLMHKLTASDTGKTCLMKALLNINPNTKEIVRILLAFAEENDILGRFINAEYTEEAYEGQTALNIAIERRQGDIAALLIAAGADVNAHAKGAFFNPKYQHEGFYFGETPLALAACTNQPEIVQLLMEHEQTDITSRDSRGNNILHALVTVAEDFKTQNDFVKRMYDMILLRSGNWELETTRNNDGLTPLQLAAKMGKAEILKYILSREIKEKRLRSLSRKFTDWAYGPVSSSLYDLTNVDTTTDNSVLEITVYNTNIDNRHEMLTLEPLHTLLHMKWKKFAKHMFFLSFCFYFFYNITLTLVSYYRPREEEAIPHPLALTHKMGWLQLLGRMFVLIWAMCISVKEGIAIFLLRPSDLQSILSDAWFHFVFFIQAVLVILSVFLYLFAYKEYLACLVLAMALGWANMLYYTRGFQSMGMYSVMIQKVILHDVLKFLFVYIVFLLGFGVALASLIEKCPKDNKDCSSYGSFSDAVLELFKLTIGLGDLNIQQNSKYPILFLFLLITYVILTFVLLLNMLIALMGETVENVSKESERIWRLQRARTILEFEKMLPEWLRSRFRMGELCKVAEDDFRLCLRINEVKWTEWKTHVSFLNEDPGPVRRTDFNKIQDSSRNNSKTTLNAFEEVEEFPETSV
- PROCEDURE_DETAILS: Whole-cell patch clamp, hTRPV3 Phase 1 / Phase 2 currents
- Format: cell-based
- CONDITION_DETAILS: Phase 2 current; read-out: hTRPV3 (nM) (Phase 2)
Ranges used to classify IC50: low value (below 70 nM), medium value (70 nM to below 800 nM), high value (800 nM or more)

COMPOUND	ASSAY_TARGET	CATEGORY_LABEL
OCc1cc(Oc2ccccc2Cl)ccc1N1CC[C@H](Oc2ncccc2Cl)C1	hTRPV3 (Homo sapiens (Human))	low value
Cc1ccc(O[C@H]2CCN(c3ccc(Oc4ccccc4)nc3CO)C2)nc1	hTRPV3 (Homo sapiens (Human))	high value
COc1ccccc1-c1ccc(N2CC[C@H](Oc3ncccc3C)C2)c(CO)n1	hTRPV3 (Homo sapiens (Human))	high value
OCc1cc(Oc2ccccc2F)ccc1N1CC[C@H](Oc2ncccc2Cl)C1	hTRPV3 (Homo sapiens (Human))	low value
NC(=O)c1cc(-c2ccccc2)ccc1N1CC[C@@H](Oc2ccccn2)C1	hTRPV3 (Homo sapiens (Human))	medium value
CC(=O)NCc1cc(-c2ccccc2Cl)ccc1N1CC[C@H](Oc2ccc(C(F)(F)F)cn2)C1	hTRPV3 (Homo sapiens (Human))	high value
O=C(c1cccc(Cl)c1)c1ccc(N2CC[C@H](Nc3ccc(F)cn3)C2)c(CCO)c1	hTRPV3 (Homo sapiens (Human))	high value
OCC(O)c1cc(-c2ccccc2)ccc1N1CC[C@H](Oc2ccc(C(F)(F)F)cn2)C1 (stereo partly shown)	hTRPV3 (Homo sapiens (Human))	medium value
CN(C)C(=O)c1ccccc1-c1ccc(N2CC[C@H](Oc3ccc(C(F)(F)F)cn3)C2)c(CO)c1	hTRPV3 (Homo sapiens (Human))	high value
CCc1ccccc1-c1ccc(N2CC[C@H](Oc3ccc(C(F)(F)F)cn3)C2)c(CO)c1	hTRPV3 (Homo sapiens (Human))	low value
NC(=O)c1cc(-c2ccccc2Cl)ccc1N1CC[C@H](Oc2ccc(C(F)(F)F)cn2)C1	hTRPV3 (Homo sapiens (Human))	medium value
CC(=O)c1ccc(Oc2ccc(N3CC[C@H](Oc4ccccn4)C3)c(CO)c2)c(F)c1	hTRPV3 (Homo sapiens (Human))	medium value
